- measuredOn: Adenosine receptors; A2b & A3 (Homo sapiens) (UniProt P29275+P0DMS8)
- Sequence (P29275 whole entry): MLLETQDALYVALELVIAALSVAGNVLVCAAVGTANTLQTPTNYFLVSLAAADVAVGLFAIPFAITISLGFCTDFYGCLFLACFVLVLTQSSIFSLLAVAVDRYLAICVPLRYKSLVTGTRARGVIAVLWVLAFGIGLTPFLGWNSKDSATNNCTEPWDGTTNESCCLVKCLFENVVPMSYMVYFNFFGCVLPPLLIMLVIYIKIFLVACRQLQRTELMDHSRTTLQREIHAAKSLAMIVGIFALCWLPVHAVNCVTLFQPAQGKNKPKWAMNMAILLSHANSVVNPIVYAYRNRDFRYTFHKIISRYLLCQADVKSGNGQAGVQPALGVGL
- assayName: Relative inhibitory activity against adenosine A3 receptors and A2B receptors
- Assay type: protein assay
Ratio reference
Enter a number only.

Here are 4 compounds together with their reported answers.
- smilesString: "CC(C)CCn1cc2c(nc(NC(=O)Cc3cccc4ccccc34)n3nc(-c4ccco4)nc23)n1"
  measuredOn: "Adenosine receptors; A2b & A3 (Homo sapiens) (UniProt P29275+P0DMS8)"
  Ratio: 7.7
- smilesString: "O=C(Cc1ccccc1)Nc1nc2nn(CCCc3ccccc3)cc2c2nc(-c3ccco3)nn12"
  measuredOn: "Adenosine receptors; A2b & A3 (Homo sapiens) (UniProt P29275+P0DMS8)"
  Ratio: 3
- smilesString: "O=C(Cc1cccc2ccccc12)Nc1nc2nn(CCc3ccccc3)cc2c2nc(-c3ccco3)nn12"
  measuredOn: "Adenosine receptors; A2b & A3 (Homo sapiens) (UniProt P29275+P0DMS8)"
  Ratio: 4
- smilesString: "CC(C)CCn1cc2c(nc(NC(=O)COc3ccccc3)n3nc(-c4ccco4)nc23)n1"
  measuredOn: "Adenosine receptors; A2b & A3 (Homo sapiens) (UniProt P29275+P0DMS8)"
  Ratio: 2

Item under review: Cn1cc2c(nc(NC(=O)Cc3ccccc3)n3nc(-c4ccco4)nc23)n1 . Reported Ratio?
0.05

Param item: O=C(COc1ccccc1)Nc1nc2nn(CCCc3ccccc3)cc2c2nc(-c3ccco3)nn12
1.6

Param item: O=C(COc1ccccc1)Nc1nc2nn(CCc3ccccc3)cc2c2nc(-c3ccco3)nn12
13.6

Param item: Cn1cc2c(nc(NC(=O)Nc3ccccc3)n3nc(-c4ccco4)nc23)n1
0.0007

Param item: O=C(Cc1ccccc1)Nc1nc2nn(CCc3ccccc3)cc2c2nc(-c3ccco3)nn12
1.3

Param item: O=C(Cc1cccc2ccccc12)Nc1nc2nn(CCCc3ccccc3)cc2c2nc(-c3ccco3)nn12
15

Param item: CC(C)CCn1cc2c(nc(NC(=O)Cc3ccccc3)n3nc(-c4ccco4)nc23)n1
2.6

====

Each entry below carries its measured Ki, system: Adenosine receptor A2a (Homo sapiens).
Sequence (P29274 whole entry): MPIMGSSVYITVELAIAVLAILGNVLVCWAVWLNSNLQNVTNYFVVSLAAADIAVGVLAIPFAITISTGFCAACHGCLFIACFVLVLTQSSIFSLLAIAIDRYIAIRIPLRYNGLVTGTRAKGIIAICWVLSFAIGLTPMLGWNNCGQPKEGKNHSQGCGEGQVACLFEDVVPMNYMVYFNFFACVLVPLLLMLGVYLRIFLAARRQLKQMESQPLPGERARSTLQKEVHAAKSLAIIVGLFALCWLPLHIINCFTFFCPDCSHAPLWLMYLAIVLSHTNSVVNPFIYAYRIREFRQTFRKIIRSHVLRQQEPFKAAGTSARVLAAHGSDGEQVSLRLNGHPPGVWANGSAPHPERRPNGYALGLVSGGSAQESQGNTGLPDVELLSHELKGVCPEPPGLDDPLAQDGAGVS
State the answer as a number, implicitly in nM.

- smilesString: "CC(C)CCn1cc2c(nc(NC(=O)Cc3ccccc3)n3nc(-c4ccco4)nc23)n1"
  Ki / nM: 57
- smilesString: "O=C(Cc1ccccc1)Nc1nc2nn(CCCc3ccccc3)cc2c2nc(-c3ccco3)nn12"
  Ki / nM: 60
- smilesString: "CC(C)CCn1cc2c(nc(NC(=O)Cc3cccc4ccccc34)n3nc(-c4ccco4)nc23)n1"
  Ki / nM: 42
- smilesString: "O=C(Cc1cccc2ccccc12)Nc1nc2nn(CCCc3ccccc3)cc2c2nc(-c3ccco3)nn12"
  Ki / nM: 800

Let's switch to this compound now.
Item under review: O=C(Cc1ccccc1)Nc1nc2nn(CCc3ccccc3)cc2c2nc(-c3ccco3)nn12 . Reported Ki?
60

====

Each entry below carries its measured pKi, system: Adenosine receptor A3 (Homo sapiens).
Sequence (P0DMS8 whole entry): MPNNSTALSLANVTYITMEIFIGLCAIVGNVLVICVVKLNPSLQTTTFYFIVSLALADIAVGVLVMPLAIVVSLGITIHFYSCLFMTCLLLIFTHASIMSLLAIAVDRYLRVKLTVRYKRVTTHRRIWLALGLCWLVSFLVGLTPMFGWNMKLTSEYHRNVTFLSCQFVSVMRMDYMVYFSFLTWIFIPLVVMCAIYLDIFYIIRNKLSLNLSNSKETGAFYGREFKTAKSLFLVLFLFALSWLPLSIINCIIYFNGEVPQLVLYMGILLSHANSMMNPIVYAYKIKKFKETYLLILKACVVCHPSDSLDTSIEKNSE
Lab note — pKi values are minus log10 of concentrations in M.

- smilesString: "CC(C)CCn1cc2c(nc(NC(=O)Cc3cccc4ccccc34)n3nc(-c4ccco4)nc23)n1"
  pKi: 6.67
- smilesString: "O=C(COc1ccccc1)Nc1nc2nn(CCCc3ccccc3)cc2c2nc(-c3ccco3)nn12"
  pKi: 7.40
- smilesString: "O=C(Cc1cccc2ccccc12)Nc1nc2nn(CCCc3ccccc3)cc2c2nc(-c3ccco3)nn12"
  pKi: 6.52

Let's switch to this molecule now.
Item under review: CC(C)CCn1cc2c(nc(NC(=O)COc3ccccc3)n3nc(-c4ccco4)nc23)n1 . Reported pKi?
7.30

====

- measuredOn: UniProt P29275
pKi reference
Lab note — pKi values are minus log10 of concentrations in M.

// lookup pKi | system=UniProt P29275 | key= O=C(Cc1cccc2ccccc12)Nc1nc2nn(CCCc3ccccc3)cc2c2nc(-c3ccco3)nn12
7.70

Param item: O=C(COc1ccccc1)Nc1nc2nn(CCc3ccccc3)cc2c2nc(-c3ccco3)nn12
7.66

Param item: CC(C)CCn1cc2c(nc(NC(=O)Cc3ccccc3)n3nc(-c4ccco4)nc23)n1
7.51

Param item: CC(C)CCn1cc2c(nc(NC(=O)COc3ccccc3)n3nc(-c4ccco4)nc23)n1
7.60

====

log10 Ki reference
- measuredOn: Adenosine receptor A1 (Homo sapiens, UniProt P30542)
- Sequence (P30542 whole entry): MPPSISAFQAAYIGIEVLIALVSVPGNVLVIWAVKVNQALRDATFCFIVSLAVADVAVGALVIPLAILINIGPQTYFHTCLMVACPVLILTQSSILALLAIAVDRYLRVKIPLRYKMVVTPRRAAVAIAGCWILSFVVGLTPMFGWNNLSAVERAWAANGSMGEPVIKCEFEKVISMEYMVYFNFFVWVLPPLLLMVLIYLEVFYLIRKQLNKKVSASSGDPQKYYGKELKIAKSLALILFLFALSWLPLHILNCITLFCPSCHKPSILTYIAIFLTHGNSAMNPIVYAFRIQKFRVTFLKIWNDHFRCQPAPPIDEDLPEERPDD
Hello, just confirming the data are log10 of Ki with units of nM.

- smilesString: "CC(C)CCn1cc2c(nc(NC(=O)Cc3ccccc3)n3nc(-c4ccco4)nc23)n1"
  experimentalValue: 2.30
- smilesString: "CC(C)CCn1cc2c(nc(NC(=O)Cc3cccc4ccccc34)n3nc(-c4ccco4)nc23)n1"
  experimentalValue: 2.15
- smilesString: "O=C(Cc1cccc2ccccc12)Nc1nc2nn(CCc3ccccc3)cc2c2nc(-c3ccco3)nn12"
  experimentalValue: 1.95
- smilesString: "O=C(Cc1cccc2ccccc12)Nc1nc2nn(CCCc3ccccc3)cc2c2nc(-c3ccco3)nn12"
  experimentalValue: 3.04
- smilesString: "O=C(Cc1ccccc1)Nc1nc2nn(CCc3ccccc3)cc2c2nc(-c3ccco3)nn12"
  experimentalValue: 2.08

Item under review: O=C(COc1ccccc1)Nc1nc2nn(CCc3ccccc3)cc2c2nc(-c3ccco3)nn12 . Reported log10 Ki?
1.30
